Molecular target: CK1α (Homo sapiens, UniProt P48729+Q96SW2)
Construct: endogenous in cells; host or cells: MV-4-11
Sequence (P48729 whole entry): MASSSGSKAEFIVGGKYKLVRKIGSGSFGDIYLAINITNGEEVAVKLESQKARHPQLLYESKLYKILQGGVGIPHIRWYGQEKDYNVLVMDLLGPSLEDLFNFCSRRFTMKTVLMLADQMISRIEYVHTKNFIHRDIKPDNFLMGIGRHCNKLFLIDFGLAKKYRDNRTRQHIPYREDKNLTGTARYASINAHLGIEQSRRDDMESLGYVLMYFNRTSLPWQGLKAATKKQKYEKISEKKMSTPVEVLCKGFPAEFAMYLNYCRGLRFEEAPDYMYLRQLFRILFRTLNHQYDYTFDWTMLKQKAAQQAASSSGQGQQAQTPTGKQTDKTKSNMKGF
Sequence (Q96SW2 whole entry): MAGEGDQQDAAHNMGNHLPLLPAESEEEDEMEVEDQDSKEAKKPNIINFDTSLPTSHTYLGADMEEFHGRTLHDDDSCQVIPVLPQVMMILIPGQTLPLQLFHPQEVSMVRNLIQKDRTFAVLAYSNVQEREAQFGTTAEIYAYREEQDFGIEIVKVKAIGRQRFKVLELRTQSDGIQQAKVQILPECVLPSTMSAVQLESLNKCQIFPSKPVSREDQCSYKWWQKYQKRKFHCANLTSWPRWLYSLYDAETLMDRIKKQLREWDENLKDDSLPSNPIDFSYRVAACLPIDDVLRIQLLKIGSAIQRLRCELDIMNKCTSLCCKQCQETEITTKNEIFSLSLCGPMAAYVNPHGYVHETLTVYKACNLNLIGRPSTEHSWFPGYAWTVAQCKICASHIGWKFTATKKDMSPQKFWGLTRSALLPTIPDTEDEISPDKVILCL
Sequence (Q16531 whole entry partner): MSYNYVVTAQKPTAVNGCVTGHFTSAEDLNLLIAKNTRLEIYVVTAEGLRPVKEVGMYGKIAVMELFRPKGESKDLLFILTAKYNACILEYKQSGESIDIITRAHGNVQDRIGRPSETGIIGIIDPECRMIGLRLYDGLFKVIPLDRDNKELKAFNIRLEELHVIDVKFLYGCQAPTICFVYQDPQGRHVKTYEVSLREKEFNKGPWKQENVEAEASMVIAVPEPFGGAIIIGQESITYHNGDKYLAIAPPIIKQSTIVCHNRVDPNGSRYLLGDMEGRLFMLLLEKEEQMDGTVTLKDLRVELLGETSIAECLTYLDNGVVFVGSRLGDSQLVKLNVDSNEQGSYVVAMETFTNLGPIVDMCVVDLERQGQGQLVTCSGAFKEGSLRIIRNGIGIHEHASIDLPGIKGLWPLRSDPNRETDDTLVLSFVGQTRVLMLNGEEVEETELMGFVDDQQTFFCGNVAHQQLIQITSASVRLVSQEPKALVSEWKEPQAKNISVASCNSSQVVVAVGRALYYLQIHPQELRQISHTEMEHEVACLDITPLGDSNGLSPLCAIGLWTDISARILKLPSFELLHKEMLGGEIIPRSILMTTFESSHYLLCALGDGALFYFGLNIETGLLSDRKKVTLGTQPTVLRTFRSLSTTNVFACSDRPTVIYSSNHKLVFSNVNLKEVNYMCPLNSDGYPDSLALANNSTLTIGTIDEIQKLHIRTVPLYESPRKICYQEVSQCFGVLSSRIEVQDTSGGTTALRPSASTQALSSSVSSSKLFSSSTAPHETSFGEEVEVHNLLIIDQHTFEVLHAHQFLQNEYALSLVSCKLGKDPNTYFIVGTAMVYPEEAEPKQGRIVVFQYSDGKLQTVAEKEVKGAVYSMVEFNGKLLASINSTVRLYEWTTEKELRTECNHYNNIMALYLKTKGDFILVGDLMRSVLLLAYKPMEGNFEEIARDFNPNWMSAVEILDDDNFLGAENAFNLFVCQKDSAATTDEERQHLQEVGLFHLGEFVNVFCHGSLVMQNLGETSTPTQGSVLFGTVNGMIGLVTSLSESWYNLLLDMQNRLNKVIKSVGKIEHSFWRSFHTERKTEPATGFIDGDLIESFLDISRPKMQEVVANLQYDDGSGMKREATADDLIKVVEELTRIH
Assay: Western blot, degradation of cellular CK1α in MV-4-11 cells
Assay type: cell-based
Conditions: MV4-11, tested at 1 μM, 6-8 hours, read-out: % Degradation compared to DMSO, CK1α
measured.parameter: Dmax at 1 µM

Please review the entries below; each comes with its answer.
{"compound": "CC1(C)CCCC1c1cc(F)cc2c1CN(C1CCC(=O)NC1=O)C2=O (stereo not drawn) [Compound 26]", "measured": "< 25%"}
{"compound": "O=C1CCC(N2Cc3c(cc(F)c(F)c3C3CCCC3)C2=O)C(=O)N1 (stereo not drawn) [Compound 16]", "measured": "50 to 75%"}
{"compound": "O=C1CCC(N2C(=O)c3cccc(C4CCCC4)c3C2=O)C(=O)N1 (stereo not drawn) [Compound 10]", "measured": "< 25%"}

-- ask Could you tell me which Dmax at 1 µM is on file for O=C1CCC(N2Cc3c(cc(Cl)cc3C3CCCC3)C2=O)C(=O)N1 (stereo not drawn) [Compound 28] ?
-- reply < 25%

-- ask Could you tell me which Dmax at 1 µM is on file for C[C@@H](c1cccc2c1CN(C1CCC(=O)NC1=O)C2=O)C(F)(F)F (stereo partly drawn) [Compound 30] ?
-- reply < 25%

-- ask Could you tell me which Dmax at 1 µM is on file for CC1(C)CC=C(c2cc(F)cc3c2CN(C2CCC(=O)NC2=O)C3=O)CC1 (stereo not drawn) [Compound 8] ?
-- reply < 25%

-- ask Could you tell me which Dmax at 1 µM is on file for O=C1CCC(N2C(=O)c3cc(F)cc(C4CCCC4)c3C2=O)C(=O)N1 (stereo not drawn) [Compound 12] ?
-- reply < 25%

-- ask Could you tell me which Dmax at 1 µM is on file for O=C1CCC(N2Cc3c(cccc3C3CCCC3)C2=O)C(=O)N1 (stereo not drawn) [Compound 2] ?
-- reply 25 to 50%

---

Dmax at 1 µM values by entry
Molecular target: Ikaros (Homo sapiens, UniProt Q13422+Q96SW2)
Construct: endogenous in cells; host or cells: MV-4-11
Sequence (Q13422 whole entry): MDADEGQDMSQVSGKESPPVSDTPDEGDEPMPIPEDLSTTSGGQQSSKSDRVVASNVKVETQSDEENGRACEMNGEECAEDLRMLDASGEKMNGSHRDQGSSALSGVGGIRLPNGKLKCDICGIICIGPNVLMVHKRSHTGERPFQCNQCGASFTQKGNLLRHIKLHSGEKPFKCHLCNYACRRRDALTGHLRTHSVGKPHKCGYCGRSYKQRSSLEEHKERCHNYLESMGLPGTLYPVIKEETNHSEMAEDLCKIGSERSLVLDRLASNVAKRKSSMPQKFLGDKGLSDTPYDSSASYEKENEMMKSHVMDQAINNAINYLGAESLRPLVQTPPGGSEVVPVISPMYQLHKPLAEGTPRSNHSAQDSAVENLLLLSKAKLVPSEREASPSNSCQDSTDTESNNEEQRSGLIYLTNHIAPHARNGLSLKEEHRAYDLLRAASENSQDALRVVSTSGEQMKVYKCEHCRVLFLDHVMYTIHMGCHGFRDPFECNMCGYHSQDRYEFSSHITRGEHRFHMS
Sequence (Q96SW2 whole entry): as the sequence (Q96SW2 whole entry) above
Sequence (Q16531 whole entry partner): as the sequence (Q16531 whole entry partner) above
Assay: Western blot, degradation of cellular Ikaros in MV-4-11 cells
Format: cell-based
Settings: MV4-11, tested at 1 μM, 6-8 hours, read-out: % Degradation compared to DMSO, Ikaros

{"molecule": "O=C1CCC(N2C(=O)c3cccc(C4CCCC4)c3C2=O)C(=O)N1 (stereo not shown) [Compound 10]", "Dmax at 1 µM": "25 to 50%"}
{"molecule": "O=C1CCC(N2Cc3c(C4CCCC4)ccc(F)c3C2=O)C(=O)N1 (stereo not shown) [Compound 27]", "Dmax at 1 µM": "< 25%"}
{"molecule": "C[C@H](c1cccc2c1CN(C1CCC(=O)NC1=O)C2=O)C(F)(F)F (stereo partly shown) [Compound 31]", "Dmax at 1 µM": "50 to 75%"}

-- ask Could you tell me which Dmax at 1 µM is on file for CC1(N2Cc3c(cc(F)cc3C3CCCC3)C2=O)CCC(=O)NC1=O (stereo not shown) [Compound 4] ?
-- reply < 25%

-- ask Could you tell me which Dmax at 1 µM is on file for CC1(C)CCC(c2cc(F)cc3c2CN(C2CCC(=O)NC2=O)C3=O)CC1 (stereo not shown) [Compound 7] ?
-- reply < 25%

-- ask Could you tell me which Dmax at 1 µM is on file for CC1(C)CCCC1c1cc(F)cc2c1CN(C1CCC(=O)NC1=O)C2=O (stereo not shown) [Compound 26] ?
-- reply 25 to 50%

-- ask Could you tell me which Dmax at 1 µM is on file for O=C1CCC(N2Cc3c(cc(F)cc3C3CC4CCC3C4)C2=O)C(=O)N1 (stereo not shown) [Compound 25] ?
-- reply 25 to 50%

-- ask Could you tell me which Dmax at 1 µM is on file for O=C1CCC(N2Cc3c(cc(F)cc3C3CCOCC3)C2=O)C(=O)N1 (stereo not shown) [Compound 32] ?
-- reply < 25%

-- ask Could you tell me which Dmax at 1 µM is on file for O=C1CCC(N2Cc3c(cc(F)cc3C3CCCC3)C2=O)C(=O)N1 (stereo not shown) [Compound 1] ?
-- reply 50 to 75%

-- ask Could you tell me which Dmax at 1 µM is on file for O=C1CCC(N2Cc3c(cc(F)cc3C3CCCCC3)C2=O)C(=O)N1 (stereo not shown) [Compound 3] ?
-- reply 25 to 50%

-- ask Could you tell me which Dmax at 1 µM is on file for CC(C)c1cc(F)cc2c1CN(C1CCC(=O)NC1=O)C2=O (stereo not shown) [Compound 34] ?
-- reply < 25%

-- ask Could you tell me which Dmax at 1 µM is on file for O=C1CCC(N2C(=O)c3cc(F)cc(C4CCCC4)c3C2=O)C(=O)N1 (stereo not shown) [Compound 12] ?
-- reply < 25%

-- ask Could you tell me which Dmax at 1 µM is on file for O=C1CCC(N2Cc3c(cc(F)c(F)c3C3CCCC3)C2=O)C(=O)N1 (stereo not shown) [Compound 16] ?
-- reply < 25%

-- ask Could you tell me which Dmax at 1 µM is on file for O=C1CCC(N2Cc3c(cc(Cl)cc3C3CCCC3)C2=O)C(=O)N1 (stereo not shown) [Compound 28] ?
-- reply < 25%

-- ask Could you tell me which Dmax at 1 µM is on file for C[C@@H](c1cccc2c1CN(C1CCC(=O)NC1=O)C2=O)C(F)(F)F (stereo partly shown) [Compound 30] ?
-- reply 25 to 50%

-- ask Could you tell me which Dmax at 1 µM is on file for O=C1CCC(N2Cc3c(cc(F)cc3C(F)F)C2=O)C(=O)N1 (stereo not shown) [Compound 17] ?
-- reply ≥ 75%

-- ask Could you tell me which Dmax at 1 µM is on file for C[C@@H](c1cc(F)cc2c1CN(C1CCC(=O)NC1=O)C2=O)C(F)(F)F (stereo partly shown) [Compound 22] ?
-- reply < 25%

-- ask Could you tell me which Dmax at 1 µM is on file for CCC1(N2Cc3c(cc(F)cc3C3CCCC3)C2=O)CCC(=O)NC1=O (stereo not shown) [Compound 18] ?
-- reply < 25%

-- ask Could you tell me which Dmax at 1 µM is on file for O=C1CCC(N2Cc3c(cc(F)cc3C3CCC3)C2=O)C(=O)N1 (stereo not shown) [Compound 20] ?
-- reply 25 to 50%

-- ask Could you tell me which Dmax at 1 µM is on file for O=C1CCC(N2Cc3c(cccc3C3CC3)C2=O)C(=O)N1 (stereo not shown) [Compound 13] ?
-- reply 50 to 75%

---

Target: CK1α (Homo sapiens, UniProt P48729+Q96SW2)
Construct: endogenous in cells; host or cells: MV-4-11
Experiment: Western blot, degradation of cellular CK1α in MV-4-11 cells
Assay type: cell-based
Details: MV4-11, tested at 1 μM, 6-8 hours, read-out: % Degradation compared to DMSO, CK1α
Procedure: MV-4-11 cells were grown in RPMI 1640 media supplemented with 10% fetal bovine serum, streptomycin and penicillin. Cells were cultured at approximately 10^6 cells per mL and incubated in DMSO or the indicated compounds for 6-8 hours. […] For Western blot analysis, whole cell protein extracts were separated on 4-12% SDS-polyacrylamide gels, transferred to nitrocellulose and probed with the indicated primary antibodies. […] The signal was detected using the Odyssey Imaging System (LI-COR). […]
measured.parameter: Dmax at 1 µM

Please review the entries below; each comes with its answer.
{"compound": "O=C1CCC(N2Cc3c(cc(F)cc3C3=CCC(F)(F)CC3)C2=O)C(=O)N1 (stereo not drawn)", "Dmax at 1 µM": "< 25%"}
{"compound": "O=C1CCC(N2Cc3c(cc(F)cc3C3CCCCCC3)C2=O)C(=O)N1 (stereo not drawn)", "Dmax at 1 µM": "50 to 75%"}
{"compound": "O=C1CCC(N2Cc3c(cc(F)cc3C3CCCCC3)C2=O)C(=O)N1 (stereo not drawn)", "Dmax at 1 µM": "50 to 75%"}
{"compound": "CCC(C)c1cc(F)cc2c1CN(C1CCC(=O)NC1=O)C2=O (stereo not drawn)", "Dmax at 1 µM": "≥ 75%"}
{"compound": "O=C1CCC(N2Cc3c(cc(F)cc3C3CC4CCC3C4)C2=O)C(=O)N1 (stereo not drawn)", "Dmax at 1 µM": "25 to 50%"}
{"compound": "O=C1CCC(N2Cc3c(cc(F)cc3C3CCC3)C2=O)C(=O)N1 (stereo not drawn)", "Dmax at 1 µM": "50 to 75%"}
{"compound": "O=C1CCC(N2Cc3c(cc(F)cc3C3CC3)C2=O)C(=O)N1 (stereo not drawn)", "Dmax at 1 µM": "≥ 75%"}
{"compound": "C[C@@H](c1cc(F)cc2c1CN(C1CCC(=O)NC1=O)C2=O)C(F)(F)F (stereo partly drawn)", "Dmax at 1 µM": "≥ 75%"}

-- ask Write down the reported Dmax at 1 µM of O=C1CCC(N2Cc3c(cc(F)cc3C3CCOCC3)C2=O)C(=O)N1 (stereo not drawn) , test system: CK1α (Homo sapiens, UniProt P48729+Q96SW2).
-- reply 25 to 50%
